- Test system: HeLa;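 also: Hoechst-stained nuclei counted by automated confocal imaging of four fields per well in 384-well plates, with the robust Z-score based on the per-plate DMSO median and robust SD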
- Procedure summary: nuclear count per well, robust Z-score vs DMSO; higher = more cells (less toxicity)
- Condition set: 10 µM; 6 h
Answer each item with its documented nuclear count per well.

Which nuclear count per well value belongs to CCCCCCCCC#CCC#CCC#CCCCC(=O)O ?
0.469

Which nuclear count per well is listed for Cc1cc(C2CCCCC2)n(O)c(=O)c1 ?
-0.723

Give its nuclear count per well value. Item: CC(N)=NCc1cccc(CN)c1
0.0782

Reported nuclear count per well for Cn1nnc2c(C(N)=O)ncn2c1=O [Temozolomide] : what is it?
0.207

Suppose we examine the compound O=c1[nH]c(=O)n([C@H]2C[C@H](O)[C@@H](CO)O2)cc1I ; what nuclear count per well value has been reported?
-0.535

// returns reported nuclear count per well for input CCCCC/C=C\C/C=C\C/C=C\CCCCC(=O)O
0.117

What measured nuclear count per well goes with CC(C)(C(=O)NCC(F)(F)C(F)(F)F)C(=O)N[C@@H]1C(=O)Nc2ccccc2-c2ccccc21 ?
0.372

Which value of nuclear count per well has been reported for Fc1ccc(C(c2ccc(F)cc2)N2CCN(C/C=C/c3ccccc3)CC2)cc1 in the records?
-1.4

Can you look up the measured nuclear count per well of Cc1[nH]c2ccccc2c1CCNC(=O)c1ccccc1F for me?
-0.994

Look up nuclear count per well for this compound: COCc1cc(O)c(O)c(O)c1-c1c(COC)cc(O)c(O)c1O
0.593

Would you kindly share the measured nuclear count per well for NC(=O)N1c2ccccc2C=Cc2ccccc21 [Carbamazepine] ?
0.823

Which nuclear count per well value belongs to CNCCC(Oc1ccc(C(F)(F)F)cc1)c1ccccc1 (stereo not given) ?
-0.209

// returns reported nuclear count per well for input Cc1cc(-c2ncc(CC(=O)Nc3ccc(-c4cnccn4)cn3)cc2C)ccn1
1.55

If you can, please state the reported nuclear count per well value of CCCCC/C=C\C/C=C\C/C=C\C/C=C\CCCC(=O)O[C@@H](CO)COCCCCCCCCCCCCCCCC .
0.524

Query: nuclear count per well; subject: COC(=O)Nc1nc2cc(C(=O)c3ccc(F)cc3)ccc2[nH]1
-0.258

Form field: reported nuclear count per well of COc1ccc([C@@H]2Sc3ccccc3N(CCN(C)C)C(=O)[C@@H]2OC(C)=O)cc1
0.374

Need nuclear count per well of Oc1cc2c(cc1O)CN(C(=S)NCCc1ccc(Cl)cc1)CCC2 [Capsazepine] , thanks.
-1.71

What value of nuclear count per well has been recorded for this entry: CC(=O)N1CCN(c2ccc(OCC3COC(Cn4ccnc4)(c4ccc(Cl)cc4Cl)O3)cc2)CC1 (stereo not given)
0.333

Query (compound): CC(=O)c1ccc(S(=O)(=O)NC(=O)NC2CCCCC2)cc1 [Acetohexamide] ; field requested: nuclear count per well
0.532

Fill blank: measured nuclear count per well of the compound CCCCC/C=C\C[C@@H](O)/C=C/c1cccc(C[C@@H](O)CCCCO)n1 is ____.
-1.13

Item under review: CCOC(=O)[C@H](CCc1ccccc1)N[C@@H](C)C(=O)N1[C@H](C(=O)O)C[C@@H]2CCC[C@@H]21 . Reported nuclear count per well?
-0.209

# query: nuclear count per well of entry COc1cc2nccc(Oc3ccc(NC(=S)NC(=O)c4ccccc4C)cc3)c2cc1OC
-0.251

Which nuclear count per well reading was recorded for the compound CCCCCCCCCCCCCCCC(=O)O[C@@H]1[C@@H](O)[C@@H](O)[C@@H]([C@H](NC(=O)[C@@H]2C[C@@H](CCC)CN2C)[C@H](C)Cl)O[C@@H]1SC ?
-0.35

Would you kindly share the measured nuclear count per well for C[C@@H](CN1CCC(n2c(=O)[nH]c3cc(Cl)ccc32)CC1)NC(=O)c1ccc2ccccc2c1 ?
-0.404

Recorded nuclear count per well of C#C[C@]1(O)CC[C@H]2[C@@H]3CCc4cc(O)ccc4[C@H]3CC[C@@]21C [Ethinyl estradiol] , please.
0.192

Would you kindly share the measured nuclear count per well for Nc1ccn([C@H]2CC[C@@H](CO)O2)c(=O)n1 [Zalcitabine] ?
-0.556

# query: nuclear count per well of entry O=c1c(-c2ccc(O)cc2)coc2cc(O[C@@H]3O[C@H](CO)[C@@H](O)[C@H](O)[C@H]3O)ccc12
1.05

Dear colleague, I am looking for the recorded nuclear count per well of the following compound: C#C[C@]1(O)CC[C@H]2[C@@H]3CCc4cc(OC)ccc4[C@H]3CC[C@@]21C
-1.59

For Cc1cccc(Nc2ccccc2C(=O)O)c1C , what is its reported nuclear count per well?
-0.0235

State the recorded nuclear count per well for this entry: O=C1CCc2c(ccc3ccccc23)O1
0.693

Form field: reported nuclear count per well of CCCCCCCC(=O)OC[C@H](CO)OC(=O)CCCCCCC
0.414

Which value of nuclear count per well has been reported for O=C1Nc2ccc(Cl)cc2[C@@](C#CC2CC2)(C(F)(F)F)O1 in the records?
0.00509

What value of measured nuclear count per well is listed for CCC1=C[C@@H]2CN(C1)Cc1c([nH]c3ccccc13)[C@@](C(=O)OC)(c1cc3c(cc1OC)N(C)[C@H]1[C@@](O)(C(=O)OC)[C@H](OC(C)=O)[C@]4(CC)C=CCN5CC[C@]31[C@@H]54)C2 ?
-3.48

Would you mind telling me what nuclear count per well value was observed for Nc1ccn([C@@H]2O[C@H](CO)[C@@H](O)C2(F)F)c(=O)n1 ?
-0.0938

So what's the measured nuclear count per well for this one? C[C@@H]1C[C@H]2[C@@H]3CCC4=CC(=O)C=C[C@]4(C)[C@@]3(F)[C@@H](O)C[C@]2(C)[C@@]1(O)C(=O)CO
-0.335
